Ref: the supplement of paper PMC9112550

system: Escherichia coli TOP10; assay: shrunken log2 fold change of peptide-encoding DNA abundance (4.5 h post-induction vs induction); higher = less antimicrobial activity (less host growth inhibition); details: time post-induction: 4.5 h; library: site-saturation at positions 5, 18, 19, 20;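 further: peptides expressed intracellularly from a pBAD plasmid library in pooled LB shake-flask culture, induced with 0.3% L-arabinose, DNA abundance read by NGS, three biological replicates, DESeq2 with apeglm shrinkage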
Measured shrunken log2 fold change by item
No unit in the answer, only the number.

Past entries and their recorded results:
>>> result_number("RRIRWRPPRLPRPRPRPESLPRP")
0.412
>>> result_number("RRIRKRPPRLPRPRPRPGTIPRP")
-0.0588
>>> result_number("RRIRSRPPRLPRPRPRPWVMPRP")
-0.0894

Value (shrunken log2 fold change, Escherichia coli TOP10) for record `RRIRGRPPRLPRPRPRPPLDPRP` = 0.989

Value (shrunken log2 fold change, Escherichia coli TOP10) for record `RRIRGRPPRLPRPRPRPDSPPRP` = 0.136

Value (shrunken log2 fold change, Escherichia coli TOP10) for record `RRIRHRPPRLPRPRPRPMKMPRP` = 0.043

Value (shrunken log2 fold change, Escherichia coli TOP10) for record `RRIRGRPPRLPRPRPRPLRGPRP` = 1.29
